Every entry's value here was drawn from patent US12623942B2.

Kindly state Log K(Li^+, MeOH, 25° C.) for each of the entries shown.
# ASSAY NAME: Complexing constant Log K in methanol at 25° C.
# Type: binding
Give bare numbers.

Completed entries (count: 3):
MOLECULE	Log K(Li^+, MeOH, 25° C.)
CCOC(=O)COc1c2cc(C(C)(C)C)cc1Cc1cc(C(C)(C)C)cc(c1OCC(=O)OCC)Cc1cc(C(C)(C)C)cc(c1OCC(=O)OCC)Cc1cc(C(C)(C)C)cc(c1OCC(=O)OCC)Cc1cc(C(C)(C)C)cc(c1OCC(=O)OCC)C2 [CEM 11]	1.0
CCN(CC)C(=O)COc1c2cc(C(C)(C)C)cc1Cc1cc(C(C)(C)C)cc(c1OCC(=O)N(CC)CC)Cc1cc(C(C)(C)C)cc(c1OCC(=O)N(CC)CC)Cc1cc(C(C)(C)C)cc(c1OCC(=O)N(CC)CC)C2 [CEM1]	4.0
CCN(CC)C(=O)COc1c2cc(C(C)(C)C)cc1Cc1cc(C(C)(C)C)cc(c1OCC(=O)N(CC)CC)Cc1cc(C(C)(C)C)cc(c1OCC(=O)N(CC)CC)Cc1cc(C(C)(C)C)cc(c1OCC(=O)N(CC)CC)Cc1cc(C(C)(C)C)cc(c1OCC(=O)N(CC)CC)Cc1cc(C(C)(C)C)cc(c1OCC(=O)N(CC)CC)C2 [CEM2]	2.6

For the next question, use this molecule.
Q) Fill in: Log K(Li^+, MeOH, 25° C.) of CC(C)(C)c1cc2c(OCC(=O)N3CCCC3)c(c1)Cc1cc(C(C)(C)C)cc(c1OCC(=O)N1CCCC1)Cc1cc(C(C)(C)C)cc(c1OCC(=O)N1CCCC1)Cc1cc(C(C)(C)C)cc(c1OCC(=O)N1CCCC1)C2 [CEM 4] is ___
A) 3.0

---

# ASSAY NAME: Solubility in water
# Format: physicochemical
Classify: Yes when Solubility in water is strictly less than 500 µM; No when Solubility in water is not.

Field: example entries. Status: answers known.
> print(dat)
                                   compound  class.assignment
1  OCc1cc(C(F)(F)C(F)(F)C(F)(F)C(F)(F)F)cc(C(F)(F)C(F)(F)C(F)(F)C(F)(F)F)c1               Yes
2  CCCC(O)c1cc(C(F)(F)F)cc(C(F)(F)F)c1 (stereo not shown)               Yes

Q) I wonder whether OCc1cccc(C(F)(F)F)c1 has Solubility in water below 500 µM. Can you tell?
A) No

Q) Cool, now CC(O)c1cccc(C(F)(F)C(F)(F)C(F)(F)F)c1 (stereo not shown)
A) Yes

Q) // query: OC(c1cccc(C(F)(F)F)c1)c1cccc(C(F)(F)F)c1
A) Yes

Q) Item: OCc1cc(C(F)(F)F)cc(C(F)(F)F)c1 [ASM2, [3,5-Bis(Trifluoromethyl)phenyl]methanol]
A) No

Q) # repeat for OCc1cc(C(F)(F)F)c(C(F)(F)F)c(C(F)(F)F)c1
A) Yes

---

# ASSAY NAME: Liquid-liquid extraction of mono-salt saline solution
# TEST CONTEXT: 0.1M CEM + 3.52M ASM2 in CH2Cl2; initial salt 0.1 mol/L; Org./Water = 1; molar %
# From the text: The extracting composition is obtained by solubilizing an amount of CEM and ASM in the selected fluidizing agent, dichloromethane CH2Cl2, dichlorobenzene or dichlorotoluene or any other fluidizing agent able to well solubilize the mixture CEM/ASM in order to obtain the searched final concentrations after solubilizing CEMs and ASMs in a minimum of 3 milliliters of fluidizing agent. If the selected fluidizing agent is also an ASM compound, so the selected ASM volume is at least 3 milliliters. […]
Kindly supply the reported Extraction rate at room temperature (RT), LiCl values for the records listed here.
Answer format: number, then unit.

Look over these answered cases.
ITEM SMILES	RESULT
CCOC(=O)COc1c2cc(C(C)(C)C)cc1Cc1cc(C(C)(C)C)cc(c1OCC(=O)OCC)Cc1cc(C(C)(C)C)cc(c1OCC(=O)OCC)Cc1cc(C(C)(C)C)cc(c1OCC(=O)OCC)Cc1cc(C(C)(C)C)cc(c1OCC(=O)OCC)Cc1cc(C(C)(C)C)cc(c1OCC(=O)OCC)C2	9.0%
CCN(CC)C(=O)COc1c2cc(C(C)(C)C)cc1Cc1cc(C(C)(C)C)cc(c1OCC(=O)N(CC)CC)Cc1cc(C(C)(C)C)cc(c1OCC(=O)N(CC)CC)Cc1cc(C(C)(C)C)cc(c1OCC(=O)N(CC)CC)C2	73.7%
CCOC(=O)COc1c2cc(C(C)(C)C)cc1Cc1cc(C(C)(C)C)cc(c1OCC(=O)OCC)Cc1cc(C(C)(C)C)cc(c1OCC(=O)OCC)Cc1cc(C(C)(C)C)cc(c1OCC(=O)OCC)C2	5.5%

# context switch: different compound, same Extraction rate at room temperature (RT), LiCl
Q) Fill blank: measured Extraction rate at room temperature (RT), LiCl of the compound CCN(CC)C(=O)COc1c2cc(C(C)(C)C)cc1Cc1cc(C(C)(C)C)cc(c1OCC(=O)N(CC)CC)Cc1cc(C(C)(C)C)cc(c1OCC(=O)N(CC)CC)Cc1cc(C(C)(C)C)cc(c1OCC(=O)N(CC)CC)Cc1cc(C(C)(C)C)cc(c1OCC(=O)N(CC)CC)Cc1cc(C(C)(C)C)cc(c1OCC(=O)N(CC)CC)C2 is ____.
A) 21.9%
